experimental_details: Caspase-3/7 induction in CHO-K1 cells by small molecules, qHTS cell viability counter screen (AID 1346979); also: nearly all actives have a fitted effect of over 35% in size
assay_setup: CellTiter-Fluor fluorescence, 17 h; series mostly up to 92.4 µM
Inconclusive results are not listed. Active and inactive are the calls of the source. Calls follow the shape of the dose curve; as a rule, active = well fitted cell-killing curve with a large enough effect in the repeat runs; inconclusive = weak or mixed curves, or effect the other way; inactive = no such curve, though single readings can be large or run the other way.
Returns: one label drawn from active, inactive

Study these solved cases before continuing.
[Q] Could you please tell me the result logged for CC1(C)C(/C=C(\Cl)C(F)(F)F)C1C(=O)OC(C#N)c1cccc(Oc2ccccc2)c1 (stereo not given) in this assay?
[A] inactive

[Q] Could you please tell me the result logged for "CC(=O)C(Cl)(Cl)Cl" in this assay?
[A] active

[Q] Could you please tell me the result logged for "CC[C@H](C)[C@H]1O[C@]2(C=C[C@@H]1C)C[C@@H]1C[C@@H](C/C=C(\C)[C@@H](O[C@H]3C[C@H](OC)[C@@H](O[C@H]4C[C@H](OC)[C@@H](O)[C@H](C)O4)[C@H](C)O3)[C@@H](C)/C=C/C=C3\CO[C@@H]4[C@H](O)C(C)=C[C@@H](C(=O)O1)[C@]34O)O2" in this assay?
[A] active

Continuing:
[Q] Could you please tell me the result logged for "CCOCCOC(C)=O" in this assay?
[A] inactive

[Q] Could you please tell me the result logged for "CC(=O)c1cc(C(C)(C)C)cc2c1CCC2(C)C" in this assay?
[A] inactive

[Q] Could you please tell me the result logged for "COc1cc(C=O)cc2c1[C@H](COC(N)=O)[C@]1(OC(C)=O)ON2C[C@H]2[C@@H]1N2C(C)=O" in this assay?
[A] active

[Q] Could you please tell me the result logged for "N#CCCSCCC#N" in this assay?
[A] inactive

[Q] Could you please tell me the result logged for CNC(C)Cc1ccc2c(c1)OCO2 (stereo not given) in this assay?
[A] inactive

[Q] Could you please tell me the result logged for "ClC1=C(Cl)[C@]2(Cl)[C@@H]3[C@@H]4C[C@@H]([C@H]5O[C@@H]45)[C@@H]3[C@@]1(Cl)C2(Cl)Cl" in this assay?
[A] active

[Q] Could you please tell me the result logged for "CCCCN(CCCC)C(=S)[S-].CCCCN(CCCC)C(=S)[S-].[Zn+2]" in this assay?
[A] active

[Q] Could you please tell me the result logged for "CSCCCN=C=S" in this assay?
[A] inactive

---

experimental_details: qHTS assay to identify small molecule antagonists of the estrogen receptor alpha (ER-alpha) signaling pathway using the BG1 cell line in the presence of 0.1 nM 17-beta-estradiol - cell viability counter screen (AID 1259241); also: nearly all actives have a fitted effect of over 40% in size
assay_setup: VM7Luc4E2 (BG1) viability, CellTiter-Fluor protease, 22 h, 0.1 nM estradiol agonist added; series mostly up to 92.4 µM
Inconclusive results are not listed. Calls of active or inactive are those of the source. The call rests on the fitted dose curve; in most records, active means well fitted cell-killing curve with a large enough effect in the repeat runs; inconclusive means weak or mixed curves, or effect the other way; inactive means flat fitted curve, though single readings scatter.
Returns: one label drawn from true = active, false = inactive

[Q] Could you please tell me the result logged for "Oc1ccc(I)cc1" in this assay?
[A] false

[Q] Could you please tell me the result logged for CN(CCCC(O)c1cccnc1)N=O (centres undefined) in this assay?
[A] false

[Q] Could you please tell me the result logged for CCOC(=O)OC1=C(c2cc(C)ccc2C)C(=O)NC12CCC(OC)CC2 (centres undefined) in this assay?
[A] false

[Q] Could you please tell me the result logged for CC(O)C#N (centres undefined) in this assay?
[A] false

[Q] Could you please tell me the result logged for "CCC[CH2][Sn]([CH2]CCC)([CH2]CCC)[O]C(=O)c1ccccc1" in this assay?
[A] true

[Q] Could you please tell me the result logged for "O=C(NC(=O)c1c(F)cccc1F)Nc1cc(Cl)c(OC(F)(F)C(F)F)c(Cl)c1" in this assay?
[A] false

[Q] Could you please tell me the result logged for "BrCBr" in this assay?
[A] false

[Q] Could you please tell me the result logged for "N#Cc1c(-c2ccc(Cl)cc2)[nH]c(C(F)(F)F)c1Br" in this assay?
[A] false

Continuing:
[Q] Could you please tell me the result logged for "O=C1C=CC(=O)c2ccccc21" in this assay?
[A] true

[Q] Could you please tell me the result logged for "Nc1ccccc1C(=O)OC/C=C/c1ccccc1" in this assay?
[A] false

[Q] Could you please tell me the result logged for "O=C(CBr)c1ccc(O)cc1" in this assay?
[A] false

[Q] Could you please tell me the result logged for "COc1cccc(C(=O)CCN[C@@H](C)[C@H](O)c2ccccc2)c1" in this assay?
[A] false

[Q] Could you please tell me the result logged for "CC(C)OS(C)(=O)=O" in this assay?
[A] false

[Q] Could you please tell me the result logged for "CCS(=O)(=O)c1cccnc1S(=O)(=O)NC(=O)Nc1nc(OC)cc(OC)n1" in this assay?
[A] false

All values here come from PubChem BioAssay (Tox21).
